Test system: MS2 coat protein
Test: apparent KD of MS2 coat protein; designed switch direction (-1 OFF switch, 1 ON switch): -1; higher = weaker reporter binding
Conditions: input ligand: FMN 200 uM
Entries annotated with measured apparent KD of MS2 coat protein

MACROMOLECULE SEQUENCE	apparent KD of MS2 coat protein / nM
AUUUAGUGAGGAUAUGUGGCUUCGAUCGUGAGAUCGAGGCUACAGAAGGCACAUGAGGAUCACCCAUGUUCCUA [salish99_ex4_r4_115] (Eterna round: R97, puzzle: Exclusion 4)	86.3
CCAUAUAGGAGAGGAUAUACGCACCACUAACUAGUAGAAGGCUCACAUGAGGAUCACCCAUGUGAUUUCUCAAUAUUAUACAUC [Prohibition 73 - Jieux - Exclusion NG 1] (Eterna round: R96, puzzle: Exclusion NG 1)	50.3

====

Test system: MS2 coat protein
Assay: apparent KD of MS2 coat protein; designed switch direction (-1 OFF switch, 1 ON switch): -1; higher = weaker reporter binding
Conditions: input ligand: none
Entries annotated with measured apparent KD of MS2 coat protein

MACROMOLECULE SEQUENCE	TARGET UNDER TEST	apparent KD of MS2 coat protein / nM
AUUUAGUGAGGAUAUGUGGCUUCGAUCGUGAGAUCGAGGCUACAGAAGGCACAUGAGGAUCACCCAUGUUCCUA [salish99_ex4_r4_115] (Eterna round: R97, puzzle: Exclusion 4)	MS2 coat protein	21.4
AACAGUACAGGAUAUACAUGAGGAUCACCCAUGUGAGAAUUAAGUGGCGAACCACAAAGUAGAAGGGUACUGGA [Mat - Exclusion 3 - JL mod - D1] (Eterna round: R96, puzzle: Exclusion 3)	MS2 coat protein	46.3
CCAAGCUUAUUCAUUAACAACAUGAGGAUCACCCAUGUAUAGGCAAUUAUGACUGGGCUCUUUAGUGCUCGUCUUAU [Sensor-V1 #25] (Eterna round: R97, puzzle: Sensor, turn-off variant 1)	MS2 coat protein	14.7
GCAGCUAACACAGAUAUGUGGACAUGAGGAUCACCCAUGUCACAGGAUAUGGACUGGAUUACAGUCCAGAAGGGUGAAUGCUGC [Zipper Style 5] (Eterna round: R96, puzzle: Exclusion NG 3)	MS2 coat protein	14.2
CAAAAGGGAGGAUAUACUUGAGGAUCACCCAAGUAAUCGGGUCAAAGAUACCAAGCAGGUAGAAGGCCCAAAUA [Teedleveer] (Eterna round: R97, puzzle: Exclusion 3)	MS2 coat protein	84.7
UGAGACUGAGGAUAUACUGGCCCAUAAAGUGGGUCGUGGGUACAUGAGGAUCACCCAUGUAGAAGGCAGCCUCG [Omei Repeat Sequence v6] (Eterna round: R97, puzzle: Exclusion 2)	MS2 coat protein	55.4
CAGUACUGAGGAUAUACAUGAGGAUCACCCAUGUGUUCCAGCUGGGAAACUAGCAAAAGUAGAAGGCAGUACUG [salish99_ex3_r3_076] (Eterna round: R96, puzzle: Exclusion 3)	MS2 coat protein	21.8
AAAGCGCGGUGAUAAUCUGUAACAUGAGGAUCACCCAUGUAGCAGGAUAUGGGCACAGUGGAAACUCAGAAGGGCUAUAAGCGC [Eternabot solution 21] (Eterna round: R96, puzzle: Exclusion NG 3)	MS2 coat protein	288
GUUUCGAGACGGAGAUCCGACAUGAGGAUCACCCAUGUCUCACAAGCUUUUUGCUCGUCUUAUACUCCUCUGUUCUC [Elimod 48 - Jieux - Sensor, turn-off variant 1] (Eterna round: R97, puzzle: Sensor, turn-off variant 1)	MS2 coat protein	17.7
UAUUGGAUAGGAUAUACAUGAGGAUCACCCAUGUGGACGGCUAAGCCUACCGCGCAGAGUAGAAGGGUCGGGUG [Eternabot (L1) Solution 66] (Eterna round: R97, puzzle: Exclusion 3)	MS2 coat protein	155
GGUCGAGAAGUUAGGAUAUCGAUAAAACAGAAAUUUGAGAAGGGACUUGAGGAUCACCCAAGUUAUUGGUUCUC [Anaranle] (Eterna round: R97, puzzle: Brourd's mod of Exclusion 4)	MS2 coat protein	19.6
UUUAAGUCAGGAUAUACAUGAGGAUCACCCAUGUAAAAUUUUAAUUUAAUUUUAAGGUGUAGAAGGGACAAUUU [Ex3 #3] (Eterna round: R97, puzzle: Exclusion 3)	MS2 coat protein	34.9
UAUGGUUAAGUCAGGAUAUGCACGAAGAGAUCAAUGCAGAAGGGACAUGAGGAUCACCCAUGUAAAGUCGUGUU [Ex4 #74] (Eterna round: R97, puzzle: Brourd's mod of Exclusion 4)	MS2 coat protein	27.7
AUCAGCUCGUGAGGAUAUGCACAUGAGGAUCACCCAUGUAAGAUCAAGCUGCUUCGGCAGCAAGUGCAGAAGGCACGAGCUGAU [ENG2/9-A2] (Eterna round: R96, puzzle: Exclusion NG 2)	MS2 coat protein	182
UCAGGAGCAGGAUAUGCAAUCGUGCUUCGGCACGUAAGGUCACAUGAGGAUCACCCAUGUAGAAGGGCUCCUGA [E2/4-D2] (Eterna round: R97, puzzle: Exclusion 2)	MS2 coat protein	18.4
GUUGGUUGAGAGGAUAUUGUACGCGAUGAGUGUCGAGAAGGUUCAACAUGAGGAUCACCCAUGUGGCUGAGUAA [Eternabot (L1) Solution 40] (Eterna round: R97, puzzle: Exclusion 6)	MS2 coat protein	32.1
CUGUUCCGUGUAGGAUAUGCAUAUUCCCAUUAUGCAGAAGGACAUGAGGAUCACCCAUGUAUGUUAUUAUCAUGUGUUACAUGC [Design 8] (Eterna round: R96, puzzle: Exclusion NG 1)	MS2 coat protein	36.4
GCAGCAUAGAUAACAGUCUGAUACAUGAGGAUCACCCAUGUACAGGAUAUGGUCUGGAUUACAGGCCAGAAGGGUACAAGCUGC [Eli exng3 - 014] (Eterna round: R96, puzzle: Exclusion NG 3)	MS2 coat protein	12.7
